tested_target: Beta-1 adrenergic receptor (Cavia porcellus, UniProt B0FL73)
Sequence (B0FL73 whole entry): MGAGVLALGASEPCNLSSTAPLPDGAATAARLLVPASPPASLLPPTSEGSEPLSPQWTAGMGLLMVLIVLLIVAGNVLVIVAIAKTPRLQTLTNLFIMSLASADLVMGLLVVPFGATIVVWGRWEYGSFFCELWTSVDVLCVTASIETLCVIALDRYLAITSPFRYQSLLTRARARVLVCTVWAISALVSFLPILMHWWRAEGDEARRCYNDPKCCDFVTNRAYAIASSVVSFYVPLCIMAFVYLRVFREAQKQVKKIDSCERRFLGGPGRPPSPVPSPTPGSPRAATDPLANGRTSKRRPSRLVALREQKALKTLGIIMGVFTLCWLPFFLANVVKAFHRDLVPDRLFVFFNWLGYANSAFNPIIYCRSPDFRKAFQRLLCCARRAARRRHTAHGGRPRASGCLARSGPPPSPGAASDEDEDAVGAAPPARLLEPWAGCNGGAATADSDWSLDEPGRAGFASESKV
protocol_details: Antagonist activity at beta1 adrenoceptor in guinea pig atrium assessed as inhibition of isoproterenol-induced response after 20 mins
Set-up: species or system Cardiac atrium
study_conditions: read-out: pA2 (converted)
assay_metric: Kb (nM)
// note: answer is a bare numeric in nM

IN: What Kb appears in the records for this molecule with Beta-1 adrenergic receptor (Cavia porcellus, UniProt B0FL73)? Cc1cccc(C(O)CNC(C)C)c1 (centres undefined)
OUT: 794

IN: Give the reported Kb for COc1ccccc1C(O)CNC(C)C (centres undefined) (system: Beta-1 adrenergic receptor (Cavia porcellus, UniProt B0FL73)).
OUT: 617

IN: Item COc1ccc(C)cc1C(O)CNC(C)C (centres undefined) with Beta-1 adrenergic receptor (Cavia porcellus, UniProt B0FL73) - Kb?
OUT: 2510

IN: Notebook: pull reported Kb for Beta-1 adrenergic receptor (Cavia porcellus, UniProt B0FL73), entry COc1cc(Br)ccc1C(O)CNC(C)C (centres undefined)
OUT: 5.75

IN: What Kb appears in the records for this molecule with Beta-1 adrenergic receptor (Cavia porcellus, UniProt B0FL73)? COc1ccc(Br)cc1C(O)CNC(C)C (centres undefined)
OUT: 1480

IN: API: value(readout= Kb, system= Beta-1 adrenergic receptor (Cavia porcellus, UniProt B0FL73), query= COc1cc(C)ccc1C(O)CNC(C)C (centres undefined) )
OUT: 10

IN: Record lookup: for Beta-1 adrenergic receptor (Cavia porcellus, UniProt B0FL73), what Kb belongs to CC(C)NCC(O)c1cccc(Br)c1 (centres undefined) ?
OUT: 631

IN: Report Kb for Cc1ccc(C(O)CNC(C)C)cc1 (centres undefined) tested on Beta-1 adrenergic receptor (Cavia porcellus, UniProt B0FL73).
OUT: 126

IN: Form field: Kb recorded for CC(C)NCC(O)c1ccc(Br)cc1 (centres undefined) with Beta-1 adrenergic receptor (Cavia porcellus, UniProt B0FL73) (enter value)
OUT: 158

---

tested_target: Beta-2 adrenergic receptor (Cavia porcellus, UniProt Q8K4Z4)
Sequence (Q8K4Z4 whole entry): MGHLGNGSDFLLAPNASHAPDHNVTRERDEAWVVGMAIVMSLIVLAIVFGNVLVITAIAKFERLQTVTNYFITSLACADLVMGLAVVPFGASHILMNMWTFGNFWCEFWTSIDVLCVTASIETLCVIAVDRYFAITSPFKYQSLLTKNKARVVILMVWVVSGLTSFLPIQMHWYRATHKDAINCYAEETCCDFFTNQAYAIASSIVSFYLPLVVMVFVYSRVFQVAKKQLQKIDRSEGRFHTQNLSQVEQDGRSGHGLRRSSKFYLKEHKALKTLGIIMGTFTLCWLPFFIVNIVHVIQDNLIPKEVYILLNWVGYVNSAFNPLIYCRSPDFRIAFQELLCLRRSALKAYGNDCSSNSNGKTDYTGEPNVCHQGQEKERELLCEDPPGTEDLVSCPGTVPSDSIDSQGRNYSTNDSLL
protocol_details: Antagonist activity at beta2 adrenoceptor in guinea pig trachea assessed as inhibition of isoproterenol-induced response after 20 mins
study_conditions: read-out: pA2 (converted)
assay_metric: Kb (nM)
// units = nM; emit number, no label

IN: Would you kindly share the measured Kb for CC(C)NCC(O)c1cccc(Br)c1 (centres undefined) ?
OUT: 1260

IN: // Kb lookup, key: COc1ccc(Br)cc1C(O)CNC(C)C (centres undefined)
OUT: 933

IN: Quick check: Kb of Cc1ccc(C(O)CNC(C)C)cc1 (centres undefined) ?
OUT: 316

IN: Request the reported Kb associated with CC(C)NCC(O)c1ccc(Br)cc1 (centres undefined)
OUT: 200

IN: // query Kb value for entry COc1ccccc1C(O)CNC(C)C (centres undefined)
OUT: 120

IN: Bench note: what Kb did Cc1cccc(C(O)CNC(C)C)c1 (centres undefined) show?
OUT: 2000

IN: Given COc1cc(C)ccc1C(O)CNC(C)C (centres undefined) , state its recorded Kb.
OUT: 398

IN: Which Kb value belongs to COc1ccc(C)cc1C(O)CNC(C)C (centres undefined) ?
OUT: 2510

IN: Could you share which Kb value was measured for COc1cc(Br)ccc1C(O)CNC(C)C (centres undefined) ?
OUT: 13.5

Data provenance is ChEMBL document CHEMBL3244030.
